The reported numbers originate from patent US8022206B2.

- measuredOn: UniProtKB P08581
- Sequence (P08581 25-1390): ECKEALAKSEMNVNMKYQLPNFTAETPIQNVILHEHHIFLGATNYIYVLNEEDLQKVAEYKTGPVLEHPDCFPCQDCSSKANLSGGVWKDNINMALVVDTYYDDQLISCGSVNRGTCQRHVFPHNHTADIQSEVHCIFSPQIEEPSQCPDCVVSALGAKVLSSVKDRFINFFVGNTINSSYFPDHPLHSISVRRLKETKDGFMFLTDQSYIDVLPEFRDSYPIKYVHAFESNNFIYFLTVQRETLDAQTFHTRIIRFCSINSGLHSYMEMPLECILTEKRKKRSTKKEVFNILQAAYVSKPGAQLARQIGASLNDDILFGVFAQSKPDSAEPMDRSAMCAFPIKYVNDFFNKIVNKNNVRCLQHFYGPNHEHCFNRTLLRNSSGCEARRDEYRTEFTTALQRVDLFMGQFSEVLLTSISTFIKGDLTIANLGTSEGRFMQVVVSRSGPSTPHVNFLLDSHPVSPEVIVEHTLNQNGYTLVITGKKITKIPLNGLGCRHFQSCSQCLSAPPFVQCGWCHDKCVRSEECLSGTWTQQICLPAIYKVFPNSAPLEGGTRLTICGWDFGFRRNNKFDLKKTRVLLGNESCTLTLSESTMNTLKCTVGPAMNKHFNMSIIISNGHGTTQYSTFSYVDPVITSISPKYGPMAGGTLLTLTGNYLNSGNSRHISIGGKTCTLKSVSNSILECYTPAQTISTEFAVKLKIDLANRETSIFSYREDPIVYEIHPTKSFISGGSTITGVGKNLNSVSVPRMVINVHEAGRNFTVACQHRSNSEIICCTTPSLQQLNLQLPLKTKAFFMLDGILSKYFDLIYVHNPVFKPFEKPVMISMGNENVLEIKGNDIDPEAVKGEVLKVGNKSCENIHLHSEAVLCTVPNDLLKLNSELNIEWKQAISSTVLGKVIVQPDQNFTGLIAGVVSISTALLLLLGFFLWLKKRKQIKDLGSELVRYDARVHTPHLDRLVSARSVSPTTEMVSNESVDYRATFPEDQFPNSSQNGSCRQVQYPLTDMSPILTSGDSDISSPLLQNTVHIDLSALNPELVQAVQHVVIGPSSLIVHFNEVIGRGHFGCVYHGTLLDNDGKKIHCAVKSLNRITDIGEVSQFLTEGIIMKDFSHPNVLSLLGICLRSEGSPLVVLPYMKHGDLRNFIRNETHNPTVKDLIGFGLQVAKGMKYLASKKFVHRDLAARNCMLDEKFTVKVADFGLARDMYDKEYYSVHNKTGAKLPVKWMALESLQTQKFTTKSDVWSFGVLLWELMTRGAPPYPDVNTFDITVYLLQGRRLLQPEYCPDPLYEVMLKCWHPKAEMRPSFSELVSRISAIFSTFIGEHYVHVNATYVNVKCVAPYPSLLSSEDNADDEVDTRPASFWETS
- protocolDetails: MET (human) AlphaScreen kinase assay, Km of ATP
- Assay type: biochemical
- assaySetup: AlphaScreen, Km of ATP; read-out: Met biochemical IC50
Reported IC50 values are given for each entry in this list.

The following compounds have reported results that may help.
Annotate the compound C[C@@H]1CN(C(=O)CN2CC=C(c3coc4c(O[C@H](C)c5c(Cl)ccc(F)c5Cl)c(N)ncc34)CC2)C[C@H](C)O1 (relative stereo) with its measured IC50.
< 500 nM

Annotate the compound COc1cc(OC)cc(-c2coc3c(O[C@H](C)c4c(Cl)ccc(F)c4Cl)c(N)ncc23)c1 with its measured IC50.
500 to 5000 nM

Annotate the compound CCC(=O)N1CC=C(c2coc3c(O[C@H](C)c4c(Cl)ccc(F)c4Cl)c(N)ncc23)CC1 with its measured IC50.
< 500 nM

Annotate the compound C[C@@H](Oc1c(N)ncc2c(-c3ccc(CN4CCSCC4)s3)coc12)c1c(Cl)ccc(F)c1Cl with its measured IC50.
500 to 5000 nM

Annotate the compound C[C@H](Oc1c(N)ncc2ccoc12)c1nnc2ccc(-c3cnn(C)c3)nn12 with its measured IC50.
500 to 5000 nM

More entries:
Annotate the compound CNC(=O)CN1CC=C(c2coc3c(O[C@H](C)c4c(Cl)ccc(F)c4Cl)c(N)ncc23)CC1 with its measured IC50.
< 500 nM

Annotate the compound C[C@@H](Oc1c(N)ncc2c(-c3cnn(C4CCN(C(N)=O)CC4)c3)coc12)c1c(Cl)ccc(F)c1Cl with its measured IC50.
500 to 5000 nM
